- system: T1, M7
- T1 construct: also called PD1 mutant M7
- test_protocol: scFv-phage ELISA
// values below are reported OD490

binder	OD490
PD1-44B5 (antibody, V domains shown, scFv-phage in the screening ELISA; later whole IgG) VH: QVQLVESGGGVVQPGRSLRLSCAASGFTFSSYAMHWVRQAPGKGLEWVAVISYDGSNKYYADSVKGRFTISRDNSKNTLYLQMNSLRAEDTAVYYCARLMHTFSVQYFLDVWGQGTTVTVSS VL: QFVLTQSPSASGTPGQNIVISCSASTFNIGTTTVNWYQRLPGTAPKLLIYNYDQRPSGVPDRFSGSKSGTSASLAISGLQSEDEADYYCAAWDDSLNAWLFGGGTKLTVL	3.6
PD1-49B9 (antibody, V domains shown, scFv-phage in the screening ELISA; later whole IgG) VH: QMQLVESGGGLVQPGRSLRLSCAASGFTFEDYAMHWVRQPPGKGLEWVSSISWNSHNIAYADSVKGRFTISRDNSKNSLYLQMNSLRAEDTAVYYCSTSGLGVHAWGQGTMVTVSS VL: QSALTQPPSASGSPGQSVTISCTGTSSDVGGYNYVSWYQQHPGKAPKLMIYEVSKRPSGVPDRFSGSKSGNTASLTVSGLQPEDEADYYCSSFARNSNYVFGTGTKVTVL	3.9
PD1-45D6 (antibody, V domains shown, scFv-phage in the screening ELISA; whole IgG in the other assays) VH: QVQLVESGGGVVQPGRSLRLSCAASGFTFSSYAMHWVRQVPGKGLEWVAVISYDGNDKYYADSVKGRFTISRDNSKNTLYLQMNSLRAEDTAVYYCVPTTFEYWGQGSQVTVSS VL: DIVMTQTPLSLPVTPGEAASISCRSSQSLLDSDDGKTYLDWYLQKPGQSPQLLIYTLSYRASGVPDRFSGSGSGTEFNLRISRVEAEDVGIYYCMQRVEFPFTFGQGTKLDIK	0.5
